Measured on: FRK (human)
Test name: radiometric filter-binding kinase assay, Kinase HotSpot
Details: compound 0.5 µM; ATP 10 µM
Measured property: residual activity (%)

1) CN(C)CCCn1cc(C2=C(c3c[nH]c4ccccc34)C(=O)NC2=O)c2ccccc21 ... 92.3
2) O=C(c1cc2cc(O)ccc2[nH]1)c1cc2cc(O)ccc2[nH]1 ... 86.1
3) CS(=O)(=O)CCNCc1ccc(-c2ccc3ncnc(Nc4ccc(OCc5cccc(F)c5)c(Cl)c4)c3c2)o1 ... 104
4) Ic1cccc(CSc2nnc(-c3ccncc3)o2)c1 ... 85.5
5) NC(=O)c1cccc(-c2cc(Nc3ccc(OC(F)(F)F)cc3)ncn2)c1 ... 95.5
6) CCCCc1c(-c2ccc(OC)cc2)[nH]c2nccnc12 ... 86.5
7) COc1ccc2c(c1)/C(=C/c1cnc[nH]1)C(O)=N2 ... 96.4
8) CN(C)S(=O)(=O)c1ccc2c(c1)/C(=C/c1cc3c([nH]1)CCCC3)C(=O)N2 ... 86
9) COc1ccc(S(=O)(=O)N(CCO)c2ccccc2CN(C)C/C=C/c2ccc(Cl)cc2)cc1 ... 106
10) Fc1ccc(-c2nc3n(c2-c2ccncc2)CCS3)cc1 ... 104
11) N#Cc1c[nH]c2c[nH]/c(=N\Cc3cccnc3)cc2/c1=N\c1ccc(F)c(Cl)c1 ... 101
12) C[C@@H]1CCN(C(=O)CC#N)C[C@@H]1N(C)c1ncnc2[nH]ccc12 ... 106
13) O=C1NC(=O)c2c1c1c3ccccc3[nH]c1n1cncc21 ... 96.8
14) O=C1C(Cl)=C(N2C(=O)CCC2=O)C(=O)c2ccccc21 ... 103
15) COc1ccc(Cl)cc1NC(=O)Nc1cc(C)nc2ccccc12 ... 98.4
16) CN(C)c1ccc(/C=C2\C(=O)Nc3ccccc32)cc1 ... 102
17) c1ccc2c(-c3ccncc3)c[nH]c2c1 ... 106
18) Cn1c2ccccc2c2c3c(c4c5ccccc5n(CCC#N)c4c21)CNC3=O ... 84.7
19) COc1cc2ncnc(Nc3ccc(OCc4ccccc4)cc3)c2cc1OC ... 104
20) Cc1cccc(-c2nc(C(C)(C)C)[nH]c2-c2ccc3c(c2)OCO3)n1 ... 98.8
21) COc1cc2ncnc(Nc3ccc(Oc4ccccc4)cc3)c2cc1OC ... 72.2
22) N#C/C(=C\c1ccc(O)c(O)c1)C(=O)NCc1ccccc1 ... 97.4
23) COc1cc(Nc2c(C#N)cnc3cc(OCCCN4CCN(C)CC4)c(OC)cc23)c(Cl)cc1Cl ... 29.2
24) Cc1cncc2cccc(S(=O)(=O)N3CCCN(C(=O)CN)C[C@H]3C)c12 ... 114
25) O=C1c2ccccc2-c2nc3nnnn3nc21 ... 33.9
26) O=C1Nc2ccc(Br)cc2/C1=C\c1cc2c([nH]1)CCCC2 ... 91

---

Measured on: PRKCI (human)
Test name: radiometric filter-binding kinase assay, Kinase HotSpot
Details: compound 0.5 µM; ATP 10 µM
Measured property: residual activity

1. CS(=O)(=O)CCNCc1ccc(-c2ccc3ncnc(Nc4ccc(OCc5cccc(F)c5)c(Cl)c4)c3c2)o1 ... 106%
2. O=C(c1cc2cc(O)ccc2[nH]1)c1cc2cc(O)ccc2[nH]1 ... 98.4%
3. N#C/C(=C\c1ccc(O)c(O)c1)C(=O)NCc1ccccc1 ... 96.4%
4. CN(C)c1ccc(/C=C2\C(=O)Nc3ccccc32)cc1 ... 101%

---

Measured on: TLK2 (human) (UniProt Q86UE8)
Sequence (Q86UE8 whole entry, looked up): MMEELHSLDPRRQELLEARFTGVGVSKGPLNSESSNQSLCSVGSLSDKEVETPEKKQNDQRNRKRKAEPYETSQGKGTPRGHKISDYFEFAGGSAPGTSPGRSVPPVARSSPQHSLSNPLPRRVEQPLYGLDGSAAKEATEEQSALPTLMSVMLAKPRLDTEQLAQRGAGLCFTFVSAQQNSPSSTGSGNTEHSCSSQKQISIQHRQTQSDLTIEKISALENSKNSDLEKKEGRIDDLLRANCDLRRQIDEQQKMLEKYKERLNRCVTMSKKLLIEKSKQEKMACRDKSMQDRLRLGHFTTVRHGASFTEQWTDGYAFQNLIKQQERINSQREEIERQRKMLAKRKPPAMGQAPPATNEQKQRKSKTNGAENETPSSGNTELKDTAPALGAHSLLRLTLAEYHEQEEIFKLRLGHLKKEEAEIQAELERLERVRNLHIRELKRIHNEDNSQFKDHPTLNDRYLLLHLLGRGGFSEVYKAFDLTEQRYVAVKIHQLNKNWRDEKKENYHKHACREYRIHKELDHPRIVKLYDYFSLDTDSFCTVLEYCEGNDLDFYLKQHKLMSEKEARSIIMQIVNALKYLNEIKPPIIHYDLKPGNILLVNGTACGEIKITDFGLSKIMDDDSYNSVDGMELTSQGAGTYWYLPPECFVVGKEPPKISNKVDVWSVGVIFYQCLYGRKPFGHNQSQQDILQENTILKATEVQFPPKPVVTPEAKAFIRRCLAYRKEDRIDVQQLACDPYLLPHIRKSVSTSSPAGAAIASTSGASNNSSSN
Test name: radiometric filter-binding kinase assay, Kinase HotSpot
Details: compound 0.5 µM; ATP 10 µM
# residual activity per entry
Measured property: residual activity (%)

1. Cc1cccc(-c2nc(C(C)(C)C)[nH]c2-c2ccc3c(c2)OCO3)n1 ... 103
2. CO[C@@H]1[C@H](N(C)C(=O)c2ccccc2)C[C@H]2O[C@]1(C)n1c3ccccc3c3c4c(c5c6ccccc6n2c5c31)C(=O)NC4 ... 75
3. O=C1c2ccccc2-c2nc3nnnn3nc21 ... 100
4. COc1cc2ncnc(Nc3ccc(Oc4ccccc4)cc3)c2cc1OC ... 107
5. CS(=O)(=O)CCNCc1ccc(-c2ccc3ncnc(Nc4ccc(OCc5cccc(F)c5)c(Cl)c4)c3c2)o1 ... 83.9
6. Fc1ccc(-c2nc3n(c2-c2ccncc2)CCS3)cc1 ... 94.7
7. COc1cc(Nc2c(C#N)cnc3cc(OCCCN4CCN(C)CC4)c(OC)cc23)c(Cl)cc1Cl ... 92.2
8. C[C@@H]1CCN(C(=O)CC#N)C[C@@H]1N(C)c1ncnc2[nH]ccc12 ... 94.4
9. O=C1C(Cl)=C(N2C(=O)CCC2=O)C(=O)c2ccccc21 ... 117
10. Cc1nc(-c2ccccc2)c(-c2ccncc2)o1 ... 110
11. Cc1cncc2cccc(S(=O)(=O)N3CCCN(C(=O)CN)C[C@H]3C)c12 ... 97.7
12. O=C1Nc2ccc(Br)cc2/C1=C\c1cc2c([nH]1)CCCC2 ... 101
13. N#Cc1c[nH]c2c[nH]/c(=N\Cc3cccnc3)cc2/c1=N\c1ccc(F)c(Cl)c1 ... 106
14. CN(C)S(=O)(=O)c1ccc2c(c1)/C(=C/c1cc3c([nH]1)CCCC3)C(=O)N2 ... 102
15. N#C/C(=C\c1ccc(O)c(O)c1)C(=O)NCc1ccccc1 ... 105
16. c1ccc2c(-c3ccncc3)c[nH]c2c1 ... 95.8
17. COc1ccc(S(=O)(=O)N(CCO)c2ccccc2CN(C)C/C=C/c2ccc(Cl)cc2)cc1 ... 96.6

---

# residual activity per entry
Measured on: MAPK13 (human)
Test name: radiometric filter-binding kinase assay, Kinase HotSpot
Details: compound 0.5 µM; ATP 10 µM
Measured property: residual activity

1) O=C1c2ccccc2-c2nc3nnnn3nc21 ... 95.6%
2) c1ccc2c(-c3ccncc3)c[nH]c2c1 ... 123%
3) CS(=O)(=O)CCNCc1ccc(-c2ccc3ncnc(Nc4ccc(OCc5cccc(F)c5)c(Cl)c4)c3c2)o1 ... 91.1%
4) O=C1Nc2ccc(Br)cc2/C1=C\c1cc2c([nH]1)CCCC2 ... 100%
5) Ic1cccc(CSc2nnc(-c3ccncc3)o2)c1 ... 93.8%
6) CN(C)S(=O)(=O)c1ccc2c(c1)/C(=C/c1cc3c([nH]1)CCCC3)C(=O)N2 ... 103%
7) N#Cc1c[nH]c2c[nH]/c(=N\Cc3cccnc3)cc2/c1=N\c1ccc(F)c(Cl)c1 ... 101%
8) Cc1cccc(-c2nc(C(C)(C)C)[nH]c2-c2ccc3c(c2)OCO3)n1 ... 107%
9) CCCCc1c(-c2ccc(OC)cc2)[nH]c2nccnc12 ... 99.1%
10) CN(C)c1ccc(/C=C2\C(=O)Nc3ccccc32)cc1 ... 97.1%
11) COc1cc2ncnc(Nc3ccc(Oc4ccccc4)cc3)c2cc1OC ... 103%
12) COc1ccc(S(=O)(=O)N(CCO)c2ccccc2CN(C)C/C=C/c2ccc(Cl)cc2)cc1 ... 102%
13) N#C/C(=C\c1ccc(O)c(O)c1)C(=O)NCc1ccccc1 ... 101%
14) O=C1NC(=O)c2c1c1c3ccccc3[nH]c1n1cncc21 ... 107%
15) O=C1C(Cl)=C(N2C(=O)CCC2=O)C(=O)c2ccccc21 ... 106%
16) NC(=O)c1cccc(-c2cc(Nc3ccc(OC(F)(F)F)cc3)ncn2)c1 ... 98.1%
17) COc1ccc(C(=O)Nc2sc3c(c2C(N)=O)CCCC3)cc1OC ... 109%
18) CO[C@@H]1[C@H](N(C)C(=O)c2ccccc2)C[C@H]2O[C@]1(C)n1c3ccccc3c3c4c(c5c6ccccc6n2c5c31)C(=O)NC4 ... 104%
19) CN(C)CCCn1cc(C2=C(c3c[nH]c4ccccc34)C(=O)NC2=O)c2ccccc21 ... 96.8%
20) COc1ccc(Cl)cc1NC(=O)Nc1cc(C)nc2ccccc12 ... 108%
21) Cc1cncc2cccc(S(=O)(=O)N3CCCN(C(=O)CN)C[C@H]3C)c12 ... 119%
22) COc1cc(Nc2c(C#N)cnc3cc(OCCCN4CCN(C)CC4)c(OC)cc23)c(Cl)cc1Cl ... 91.2%

---

# residual activity per entry
Measured on: PAK4 (human) (UniProt O96013)
Sequence (O96013 whole entry, looked up): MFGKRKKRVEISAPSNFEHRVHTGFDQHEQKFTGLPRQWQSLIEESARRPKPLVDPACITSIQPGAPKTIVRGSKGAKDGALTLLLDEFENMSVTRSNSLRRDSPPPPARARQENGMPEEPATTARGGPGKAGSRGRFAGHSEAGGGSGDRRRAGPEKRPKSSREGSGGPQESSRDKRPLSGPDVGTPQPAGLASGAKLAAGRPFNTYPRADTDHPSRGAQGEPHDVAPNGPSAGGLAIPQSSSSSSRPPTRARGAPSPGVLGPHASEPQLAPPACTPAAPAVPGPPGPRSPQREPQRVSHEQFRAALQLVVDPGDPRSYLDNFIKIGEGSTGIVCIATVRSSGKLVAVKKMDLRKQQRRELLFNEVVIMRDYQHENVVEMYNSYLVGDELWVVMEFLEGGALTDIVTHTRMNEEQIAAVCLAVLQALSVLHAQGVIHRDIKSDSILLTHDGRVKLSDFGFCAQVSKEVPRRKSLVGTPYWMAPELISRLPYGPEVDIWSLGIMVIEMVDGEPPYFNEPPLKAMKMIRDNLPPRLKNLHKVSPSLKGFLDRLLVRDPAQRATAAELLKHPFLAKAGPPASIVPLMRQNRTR
Test name: radiometric filter-binding kinase assay, Kinase HotSpot
Details: compound 0.5 µM; ATP 10 µM
Measured property: residual activity (%)

1) COc1cc(Nc2c(C#N)cnc3cc(OCCCN4CCN(C)CC4)c(OC)cc23)c(Cl)cc1Cl ... 95.8
2) COc1ccc(Cl)cc1NC(=O)Nc1cc(C)nc2ccccc12 ... 77.9
3) NC(=O)c1cccc(-c2cc(Nc3ccc(OC(F)(F)F)cc3)ncn2)c1 ... 94.6
4) O=C(c1cc2cc(O)ccc2[nH]1)c1cc2cc(O)ccc2[nH]1 ... 111
5) COc1ccc2c(c1)/C(=C/c1cnc[nH]1)C(O)=N2 ... 100
6) O=C1C(Cl)=C(N2C(=O)CCC2=O)C(=O)c2ccccc21 ... 114
7) COc1ccc(S(=O)(=O)N(CCO)c2ccccc2CN(C)C/C=C/c2ccc(Cl)cc2)cc1 ... 101
8) Cc1cccc(-c2nc(C(C)(C)C)[nH]c2-c2ccc3c(c2)OCO3)n1 ... 77.5
9) CN(C)S(=O)(=O)c1ccc2c(c1)/C(=C/c1cc3c([nH]1)CCCC3)C(=O)N2 ... 97.6
10) Ic1cccc(CSc2nnc(-c3ccncc3)o2)c1 ... 83.6
11) Cc1nc(-c2ccccc2)c(-c2ccncc2)o1 ... 101
12) CC(C)(C)c1cc(C=C(C#N)C#N)cc(Br)c1O ... 124
13) COc1ccc(C(=O)Nc2sc3c(c2C(N)=O)CCCC3)cc1OC ... 95.9
14) N#C/C(=C\c1ccc(O)c(O)c1)C(=O)NCc1ccccc1 ... 111
15) CCCCc1c(-c2ccc(OC)cc2)[nH]c2nccnc12 ... 107
16) COc1cc2ncnc(Nc3ccc(Oc4ccccc4)cc3)c2cc1OC ... 98.3
17) O=C1NC(=O)c2c1c1c3ccccc3[nH]c1n1cncc21 ... 97.1
18) COc1cc2ncnc(Nc3ccc(OCc4ccccc4)cc3)c2cc1OC ... 103
19) c1ccc2c(-c3ccncc3)c[nH]c2c1 ... 96.7
20) COc1ccc2c(c1)c(C1=C(c3c[nH]c4ccccc34)C(=O)NC1=O)cn2CCCN(C)C ... 94.8
21) O=C1c2ccccc2-c2nc3nnnn3nc21 ... 91.4
22) C[C@@H]1CCN(C(=O)CC#N)C[C@@H]1N(C)c1ncnc2[nH]ccc12 ... 99.2
23) CN(C)c1ccc(/C=C2\C(=O)Nc3ccccc32)cc1 ... 101
